Biological target: human TYRO3 (455-end) (Homo sapiens)
Construct: TYRO3 (455-end); purchased SignalChem, Canada
Sequence (Q06418 455-890 limits assumed): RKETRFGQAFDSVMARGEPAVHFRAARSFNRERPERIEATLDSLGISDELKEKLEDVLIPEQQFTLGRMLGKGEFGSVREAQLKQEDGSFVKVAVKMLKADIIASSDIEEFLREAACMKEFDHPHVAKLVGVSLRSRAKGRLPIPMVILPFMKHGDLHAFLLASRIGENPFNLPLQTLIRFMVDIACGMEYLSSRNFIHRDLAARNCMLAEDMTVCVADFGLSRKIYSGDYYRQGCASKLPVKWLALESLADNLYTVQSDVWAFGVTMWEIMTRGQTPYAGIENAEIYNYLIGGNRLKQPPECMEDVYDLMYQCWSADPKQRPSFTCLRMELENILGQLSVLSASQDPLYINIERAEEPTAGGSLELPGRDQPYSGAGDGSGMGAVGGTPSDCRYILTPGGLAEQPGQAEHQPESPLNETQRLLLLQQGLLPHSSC
Assay: HTRF kinase activity biochemical assay, TYRO3
Conditions: 10 μM ATP, 30 minutes pre-incubation; read-out: HTRF TYRO IC50
pIC50: −log10 of the molar value.
propertyMeasured: pIC50

In [3]: df
Out[3]:
                                   compound                          targetentity  reportedresult
0  CN1CCN(C2CCCc3cc(-c4ccc(CO[C@H]5CCC[C@@H]5NC(=O)c5cc(-c6cnn(C)c6)cnc5N)cc4)ccc32)CC1 (some centres unmarked)  human TYRO3 (455-end) (Homo sapiens)    7.00 to 8.00
1  Cn1cc(-c2cnc(N)c(C(=O)N[C@H]3CCC[C@@H]3OCc3ccc(-c4ccc5c(ccn5C5CCN(CCO)CC5)c4)cc3)c2)cn1  human TYRO3 (455-end) (Homo sapiens)    6.00 to 7.00
2  CC1(C)CC(N2CCN(CCO)CC2)c2ccc(-c3ccc(CO[C@H]4CCC[C@@H]4NC(=O)c4cc(-c5ccc(F)nc5)cnc4N)cc3)cc21 (some centres unmarked)  human TYRO3 (455-end) (Homo sapiens)    7.00 to 8.00
3  CN1CC(C)(C)c2cc(-c3ccc(CO[C@H]4CCC[C@@H]4NC(=O)c4cc(-c5cnn(C)c5)cnc4N)cc3)ccc21  human TYRO3 (455-end) (Homo sapiens)          < 6.00
4  Cn1ccc(-c2cnc(N)c(C(=O)N[C@H]3CCC[C@@H]3OCc3ccc(-c4ccc5c(c4)CC[C@@H]5N4CCN(CCO)CC4)cc3)c2)cc1=O  human TYRO3 (455-end) (Homo sapiens)    7.00 to 8.00
